# TARGET SYSTEM: corticotropin releasing factor 1 receptor; note: reference of the scale not given here
# ASSAY NAME: cell-based or functional assay
So I've got a bunch of binders here, and I need their CRF1R Emax values.
Answers are plain numbers, in %.

I have 2 binders here; please give me CRF1R Emax for each one.
1. ZGPPISIDLPHWLLRKMIEIEKQEKEKQQAANNRLLLDTI (C-terminal amide) [SEQ ID NO 186]
2. ZGPPISIDLPINLLRKMIEIEKQEKEKQQAANNRLLLDTI (C-terminal amide) [SEQ ID NO 37]

100
5

The recorded CRF1R Emax for ZGPPISIDLPLVLLRKMIEIEKQEKEKQQAANNRLLLDTI (C-terminal amide) [SEQ ID NO 193] is 95
